Give EC50 for every item shown.
- measuredTarget: CFTR (Homo sapiens, UniProt P13569)
- testDescription: Membrane potential dye, Enteroid Assay A
- Assay type: cell-based
- statedConditions: Table 6; human enteroid cells, 18-24 hours; acute 10 μM forskolin and 300 nM ivacaftor; read-out: Ent. A EC50

Documented EC50 of Cc1cccc(C)c1-c1cc2nc(n1)NS(=O)(=O)c1cccc(c1)C(=O)N(C)CC(c1ccc(-c3ccncc3)cc1)O2 (centres unmarked) : < 1000 nM

EC50 for Cc1cccc(C)c1-c1cc2nc(n1)NS(=O)(=O)c1cccc(c1)C(=O)N(C)CC(c1ccccc1)O2 (centres unmarked) is < 1000 nM

Given item Cc1cccc(C)c1-c1cc2nc(n1)NS(=O)(=O)c1cccc(c1)C(=O)N(Cc1ccc(N3CCCC3)cc1)[C@H](CC(C)C)CO2 , the value recorded as its EC50 is < 1000 nM

EC50 in this record for Cc1cccc(C)c1-c1cc2nc(n1)NS(=O)(=O)c1cccc(c1)C(=O)N(Cc1ncccn1)[C@H](CC(C)C)CO2 : < 1000 nM

EC50 for COc1cccc(CN2C(=O)c3cccc(c3)S(=O)(=O)Nc3nc(cc(-c4c(C)cccc4C)n3)OC[C@H]2CC(C)C)n1 is < 1000 nM

Field EC50 (entry Cc1cccc(C)c1-c1cc2nc(n1)NS(=O)(=O)c1cccc(c1)C(=O)N(CCc1ccccc1)[C@H](CC(C)C)CO2 ) reads < 1000 nM

So, Cc1cccc(C)c1-c1cc2nc(n1)NS(=O)(=O)c1cccc(c1)C(=O)N(C)[C@H](CC(C)C)[C@H](CC(C)C)O2 ? Its EC50 was < 1000 nM

Short answer for COC(=O)CCCN1C(=O)c2cccc(c2)S(=O)(=O)Nc2nc(cc(-c3c(C)cccc3C)n2)OC[C@H]1CC(C)C : EC50 was < 1000 nM

The compound identified as Cc1cccc(C)c1-c1cc2nc(n1)NS(=O)(=O)c1cccc(c1)C(=O)N(CCCC(=O)O)[C@H](CC(C)C)CO2 registered its EC50 at 3000 to 30000 nM

Sure, the documented EC50 for Cc1cc(CN2C(=O)c3cccc(c3)S(=O)(=O)Nc3nc(cc(-c4c(C)cccc4C)n3)OC[C@H]2CC(C)C)[nH]n1 is < 1000 nM

# EC50 of Cc1cccc(C)c1-c1cc2nc(n1)NS(=O)(=O)c1cccc(c1)C(=O)N(CC1CCCN1)[C@H](CC(C)C)CO2 (some centres unmarked) = < 1000 nM

EC50 reported for this compound Cc1cccc(C)c1-c1cc2nc(n1)NS(=O)(=O)c1cccc(c1)C(=O)N(CC(C)C)CCO2 : < 1000 nM

get_value(item= Cc1cccc(C)c1-c1cc2nc(n1)NS(=O)(=O)c1cccc(c1)C(=O)N(C)CC(CNC(=O)OC(C)(C)C)O2 (centres unmarked) , readout=EC50) returns 3000 to 30000 nM

Input Cc1cccc(C)c1-c1cc2nc(n1)NS(=O)(=O)c1cccc(c1)C(=O)N(CC(O)CO)[C@H](CC(C)C)CO2 (stereo in doubt) . Output EC50: < 1000 nM

The recorded EC50 for Cc1cccc(C)c1-c1cc2nc(n1)NS(=O)(=O)c1cccc(c1)C(=O)N(CCC(C)C)CC(c1ccc(C(C)(C)C)cc1)O2 (centres unmarked) is 1000 to 3000 nM

// EC50 value for CNC(=O)c1ccc(CN2C(=O)c3cccc(c3)S(=O)(=O)Nc3nc(cc(-c4c(C)cccc4C)n3)OC[C@H]2CC(C)C)cc1 : < 1000 nM

// field: EC50; key: Cc1cccc(C)c1-c1cc2nc(n1)NS(=O)(=O)c1cccc(c1)C(=O)N(Cc1ccccc1)CC(c1ccccc1)O2 (stereo in doubt) ; value = < 1000 nM

The measured EC50 associated with Cc1cccc(C)c1-c1cc2nc(n1)NS(=O)(=O)c1cccc(c1)C(=O)N(C)C[C@H](c1ccccc1)O2 [Compound 673] reads 3000 to 30000 nM

// EC50 value for Cc1cccc(C)c1-c1cc2nc(n1)NS(=O)(=O)c1cccc(c1)C(=O)N(CCOC(C)(C)C)[C@H](CC(C)C)CO2 : < 1000 nM

So, COc1ccnc(CN2C(=O)c3cccc(c3)S(=O)(=O)Nc3nc(cc(-c4c(C)cccc4C)n3)OC[C@H]2CC(C)C)c1 ? Its EC50 was < 1000 nM

What the record says about Cc1cccc(C)c1-c1cc2nc(n1)NS(=O)(=O)c1cccc(c1)C(=O)N(Cc1cccc(C#N)c1)[C@H](CC(C)C)CO2 : EC50 is < 1000 nM

For Cc1cccc(C)c1-c1cc2nc(n1)NS(=O)(=O)c1cccc(c1)C(=O)N(Cc1ccc(C3=CCN(C)CC3)cc1)[C@H](CC(C)C)CO2 the compound record lists EC50 as < 1000 nM

Reported EC50 ( Cc1cccc(C)c1-c1cc2nc(n1)NS(=O)(=O)c1cccc(c1)C(=O)N(Cc1ccc(N3CCOCC3)nc1)[C@H](CC(C)C)CO2 ) = < 1000 nM

EC50 measured on CCCCCCCCN1C(=O)c2cccc(c2)S(=O)(=O)Nc2nc(cc(-c3c(C)cccc3C)n2)OC[C@H]1CC(C)C = < 1000 nM

Looking up Cc1cccc(C)c1-c1cc2nc(n1)NS(=O)(=O)c1cccc(c1)C(=O)N(Cc1ccn(C)n1)[C@H](CC(C)C)CO2 , I found its EC50 recorded as < 1000 nM

Record summary for Cc1cccc(C)c1-c1cc2nc(n1)NS(=O)(=O)c1cccc(c1)C(=O)N(Cc1ccccn1)CCCO2 : reported EC50 = 1000 to 3000 nM

* * *

- measuredTarget: CFTR (Homo sapiens, UniProt P13569, DEL508-508)
- Construct: endogenous in cells; host or cells: primary human bronchial epithelial cells from CF subjects (F508del/MF-HBE), differentiated at air-liquid interface
- Sequence (P13569 with tags, fused parts or gaps DEL508-508): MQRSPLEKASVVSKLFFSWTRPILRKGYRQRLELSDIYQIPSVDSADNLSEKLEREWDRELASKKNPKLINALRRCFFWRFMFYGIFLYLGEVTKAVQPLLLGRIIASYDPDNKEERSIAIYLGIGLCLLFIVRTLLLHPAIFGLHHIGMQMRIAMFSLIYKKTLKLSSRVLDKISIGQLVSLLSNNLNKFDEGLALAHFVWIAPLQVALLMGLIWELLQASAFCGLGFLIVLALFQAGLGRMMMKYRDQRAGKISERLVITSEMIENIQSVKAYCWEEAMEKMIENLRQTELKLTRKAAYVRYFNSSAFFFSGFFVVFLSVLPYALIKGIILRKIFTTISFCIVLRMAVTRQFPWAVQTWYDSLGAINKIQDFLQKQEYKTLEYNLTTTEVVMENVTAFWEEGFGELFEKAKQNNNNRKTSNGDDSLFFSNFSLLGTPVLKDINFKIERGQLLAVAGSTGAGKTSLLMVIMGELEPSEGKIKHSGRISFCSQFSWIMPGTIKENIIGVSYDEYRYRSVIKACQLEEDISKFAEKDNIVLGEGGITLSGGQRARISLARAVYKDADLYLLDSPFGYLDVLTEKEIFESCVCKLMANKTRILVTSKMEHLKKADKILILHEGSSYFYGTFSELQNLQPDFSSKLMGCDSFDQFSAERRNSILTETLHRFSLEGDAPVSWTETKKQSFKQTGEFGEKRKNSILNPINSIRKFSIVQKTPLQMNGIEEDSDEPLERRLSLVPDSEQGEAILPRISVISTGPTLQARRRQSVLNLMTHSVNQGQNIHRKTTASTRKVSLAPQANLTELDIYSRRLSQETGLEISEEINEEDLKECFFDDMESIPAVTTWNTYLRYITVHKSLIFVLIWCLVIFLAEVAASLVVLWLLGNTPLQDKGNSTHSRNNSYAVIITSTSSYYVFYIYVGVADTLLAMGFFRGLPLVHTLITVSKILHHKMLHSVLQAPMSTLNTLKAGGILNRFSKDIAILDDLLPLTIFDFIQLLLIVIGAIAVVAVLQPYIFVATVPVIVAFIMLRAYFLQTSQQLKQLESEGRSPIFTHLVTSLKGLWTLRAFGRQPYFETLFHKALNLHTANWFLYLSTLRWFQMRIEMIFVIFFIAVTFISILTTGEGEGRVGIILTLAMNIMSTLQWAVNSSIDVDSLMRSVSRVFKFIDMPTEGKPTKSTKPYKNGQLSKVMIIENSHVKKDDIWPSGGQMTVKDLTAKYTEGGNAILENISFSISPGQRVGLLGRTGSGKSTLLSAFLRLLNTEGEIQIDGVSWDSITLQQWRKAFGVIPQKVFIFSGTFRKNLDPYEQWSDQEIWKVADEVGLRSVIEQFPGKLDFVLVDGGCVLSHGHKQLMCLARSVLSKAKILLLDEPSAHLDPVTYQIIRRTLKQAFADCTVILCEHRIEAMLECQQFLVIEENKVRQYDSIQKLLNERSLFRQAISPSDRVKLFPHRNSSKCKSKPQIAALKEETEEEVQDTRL
- testDescription: HBE assay: Ussing chamber assay of CFTR-mediated short-circuit currents
- Type: cell-based
- statedConditions: read-out: HBE EC50; Table 10
pEC50: −log10 of the molar value.
resultType: pEC50

The measured pEC50 associated with Cc1cccc(C)c1-c1cc2nc(n1)NS(=O)(=O)c1cccc(c1)C(=O)N(CC1CC(N3C[C@@H](C)O[C@@H](C)C3)C1)[C@H](CC(C)(C)C)CO2 (single isomer, unassigned) reads > 6.00

* * *

- measuredTarget: CFTR (Homo sapiens, UniProt P13569, DEL508-508)
- Construct: endogenous in cells; host or cells: primary human bronchial epithelial cells from CF subjects (F508del/MF-HBE), differentiated at air-liquid interface
- testDescription: HBE assay: Ussing chamber assay of CFTR-mediated short-circuit currents
- Type: cell-based
- statedConditions: Table 13; read-out: HBE EC50
Assignment: determine reported EC50 for the given compounds.

response.value for Cc1cccc(C)c1-c1cc2nc(n1)NS(=O)(=O)c1cccc(c1)C(=O)N(Cc1ncc(N3CC4(COC4)C3)cn1)[C@H](CC(C)(C)C)CO2 [Compound 867] (field: EC50) = < 1000 nM

// EC50 lookup, compound = Cc1cccc(C)c1-c1cc2nc(n1)NS(=O)(=O)c1cccc(c1)C(=O)N(Cc1ccc(N3CC4(CC(=O)C4)C3)cn1)[C@H](CC(C)(C)C)CO2 [Compound 1056] , result: 1000 to 3000 nM

Field EC50 (entry Cc1cccc(C)c1-c1cc2nc(n1)NS(=O)(=O)c1cccc(c1)C(=O)N(Cc1ncc(OC(C)C)cn1)[C@H](CC(C)(C)C(F)(F)F)CO2 [Compound 1121] ) reads < 1000 nM

// Cc1cccc(C)c1-c1cc2nc(n1)NS(=O)(=O)c1cccc(c1)C(=O)N(Cc1ncc(OC(C)C)cc1Cl)[C@H](CC(C)(C)C)CO2 [Compound 691] : EC50 value = < 1000 nM

# EC50 (compound: Cc1cccc(C)c1-c1cc2nc(n1)NS(=O)(=O)c1cccc(c1)C(=O)N(Cc1ccc(N3CC4(COC4)C3)cn1)[C@H](CC(C)(C)C)CO2 [Compound 1063] ) is < 1000 nM

EC50 reported for this compound Cc1cccc(C)c1-c1cc2nc(n1)NS(=O)(=O)c1cccc(c1)C(=O)N(Cc1ccc3c(n1)N1CCOCC1C(C)C3)[C@H](CC(C)(C)C)CO2 (stereo partly drawn) [Compound 1154] : < 1000 nM

* * *

- measuredTarget: CFTR (Homo sapiens, UniProt P13569)
- testDescription: Membrane potential dye, Enteroid Assay A
- Assay type: cell-based
- statedConditions: Table 6; chloride transport as % of triple combination control (Enteroid Assay A)
resultType: Ent. A Max Activity

[[record]]
compound = "Cc1cccc(C)c1-c1cc2nc(n1)NS(=O)(=O)c1cccc(c1)C(=O)N(CC1CC3C=C[C@@H]1C3)[C@H](CC(C)C)CO2 (stereo partly drawn)"
observed = "+++ (+++ is >60%)"

[[record]]
compound = "COc1ccncc1CN1C(=O)c2cccc(c2)S(=O)(=O)Nc2nc(cc(-c3c(C)cccc3C)n2)OC[C@H]1CC(C)C"
observed = "+++ (+++ is >60%)"

[[record]]
compound = "Cc1cccc(C)c1-c1cc2nc(n1)NS(=O)(=O)c1cccc(c1)C(=O)N(CCC(C)C)C(CCC1(C(F)(F)F)CC1)CO2 (stereo not drawn)"
observed = "+++ (+++ is >60%)"

[[record]]
compound = "Cc1cccc(C)c1-c1cc2nc(n1)NS(=O)(=O)c1cccc(c1)C(=O)N(CCC1CCOCC1)[C@H](CCC1(C(F)(F)F)CC1)CO2 (single isomer, unassigned) [Compound 72]"
observed = "+++ (+++ is >60%)"

